test system: E. coli 50676002; assay: MIC, multi-resistant clinical isolate; format: cell-based, Escherichia coli; details: RBC EC50 / MIC, E. coli 50676002

Structure As Smiles	selectivity index (EC50/MIC)
CC(C)(C)c1ccc(CC2(Cc3ccc(C(C)(C)C)cc3)C(=O)N(CCCCN)C(=O)N(CCCCN)C2=O)cc1	(36)
CC(C)(C)c1ccc(CC2(Cc3ccc(C(C)(C)C)cc3)C(=O)N(CCCCNC(=N)N)C(=O)N(CCCCNC(=N)N)C2=O)cc1	(19)
NCCCCN1C(=O)N(CCCCN)C(=O)C(Cc2cc(C(F)(F)F)cc(C(F)(F)F)c2)(Cc2cc(C(F)(F)F)cc(C(F)(F)F)c2)C1=O	(11)
NCCCCN1C(=O)N(CCCCN)C(=O)C(Cc2ccc(F)c3ccccc23)(Cc2ccc(F)c3ccccc23)C1=O	(10)
NCCCCN1C(=O)N(CCCCN)C(=O)C(Cc2ccc3ccccc3c2)(Cc2ccc3ccccc3c2)C1=O	(15)
CC(C)(C)c1cc(CC2(Cc3cc(C(C)(C)C)cc(C(C)(C)C)c3)C(=O)N(CCCCN)C(=O)N(CCCCN)C2=O)cc(C(C)(C)C)c1	(<0.5
N=C(N)NCCCCN1C(=O)N(CCCCNC(=N)N)C(=O)C(Cc2ccc(F)c3ccccc23)(Cc2ccc(F)c3ccccc23)C1=O	(22)
N=C(N)NCCCCN1C(=O)N(CCCCNC(=N)N)C(=O)C(Cc2ccc3ccccc3c2)(Cc2ccc3ccccc3c2)C1=O	(17)
NCCCCN1C(=O)N(CCCCN)C(=O)C(Cc2cc(Br)cc(Br)c2)(Cc2cc(Br)cc(Br)c2)C1=O	(10)
N=C(N)NCCCCN1C(=O)N(CCCCNC(=N)N)C(=O)C(Cc2cc(Br)cc(Br)c2)(Cc2cc(Br)cc(Br)c2)C1=O	(14)

----------
system: K. pneumoniae 50531633; assay: MIC, multi-resistant clinical isolate; type: cell-based, Klebsiella pneumoniae; conditions: RBC EC50 / MIC, K. pneumoniae 50531633, resistant to colistin

Structure As Smiles	Study System	selectivity index (EC50/MIC)
NCCCCN1C(=O)N(CCCCN)C(=O)C(Cc2ccc(F)c3ccccc23)(Cc2ccc(F)c3ccccc23)C1=O	K. pneumoniae 50531633	(10)
NCCCCN1C(=O)N(CCCCN)C(=O)C(Cc2cc(C(F)(F)F)cc(C(F)(F)F)c2)(Cc2cc(C(F)(F)F)cc(C(F)(F)F)c2)C1=O	K. pneumoniae 50531633	(6)
N=C(N)NCCCCN1C(=O)N(CCCCNC(=N)N)C(=O)C(Cc2cc(Br)cc(Br)c2)(Cc2cc(Br)cc(Br)c2)C1=O	K. pneumoniae 50531633	(14)

----------
MIC reference
test system: S. aureus IHT 99040; experiment: MIC, multi-resistant clinical isolate; format: cell-based, Staphylococcus aureus; settings: Staphylococcus aureus, IHT99040, read-out: Antimicrobial activity (MIC)

Compound	Study System	Unit Of Measurement	MIC
N=C(N)NCCCCN1C(=O)N(CCCCNC(=N)N)C(=O)C(Cc2ccc3ccccc3c2)(Cc2ccc3ccccc3c2)C1=O [8(iv)]	S. aureus IHT 99040	µg/mL	8
NCCCCN1C(=O)N(CCCCN)C(=O)C(Cc2cc(C(F)(F)F)cc(C(F)(F)F)c2)(Cc2cc(C(F)(F)F)cc(C(F)(F)F)c2)C1=O [7(vi)]	S. aureus IHT 99040	µg/mL	16
CC(C)(C)c1ccc(CC2(Cc3ccc(C(C)(C)C)cc3)C(=O)N(CCCCNC(=N)N)C(=O)N(CCCCNC(=N)N)C2=O)cc1 [Compound 8(i)]	S. aureus IHT 99040	µg/mL	2
NCCCCN1C(=O)N(CCCCN)C(=O)C(Cc2cc(Br)cc(Br)c2)(Cc2cc(Br)cc(Br)c2)C1=O [7(ii)]	S. aureus IHT 99040	µg/mL	4

----------
test system: E. coli 50579417; assay: MIC, multi-resistant clinical isolate; assay type: cell-based, Escherichia coli; details: RBC EC50 / MIC
Property: selectivity index (EC50/MIC)

Structure As Smiles	Value
N=C(N)NCCCCN1C(=O)N(CCCCNC(=N)N)C(=O)C(Cc2cc(Br)cc(Br)c2)(Cc2cc(Br)cc(Br)c2)C1=O	(14)
N=C(N)NCCCCN1C(=O)N(CCCCNC(=N)N)C(=O)C(Cc2ccc(F)c3ccccc23)(Cc2ccc(F)c3ccccc23)C1=O	(11)

----------
tested on: E. coli 50579417; test: MIC, multi-resistant clinical isolate; assay type: cell-based, Escherichia coli; conditions: RBC EC50 / MIC
Property: selectivity index (EC50/MIC)

Structure As Smiles	Study System	Value
NCCCCN1C(=O)N(CCCCN)C(=O)C(Cc2ccc(F)c3ccccc23)(Cc2ccc(F)c3ccccc23)C1=O	E. coli 50579417	(10)
NCCCCN1C(=O)N(CCCCN)C(=O)C(Cc2cc(Br)cc(Br)c2)(Cc2cc(Br)cc(Br)c2)C1=O	E. coli 50579417	(10)
NCCCCN1C(=O)N(CCCCN)C(=O)C(Cc2cc(C(F)(F)F)cc(C(F)(F)F)c2)(Cc2cc(C(F)(F)F)cc(C(F)(F)F)c2)C1=O	E. coli 50579417	(11)
CC(C)(C)c1cc(CC2(Cc3cc(C(C)(C)C)cc(C(C)(C)C)c3)C(=O)N(CCCCN)C(=O)N(CCCCN)C2=O)cc(C(C)(C)C)c1	E. coli 50579417	(<1)
NCCCCN1C(=O)N(CCCCN)C(=O)C(Cc2ccc3ccccc3c2)(Cc2ccc3ccccc3c2)C1=O	E. coli 50579417	(15)
CC(C)(C)c1ccc(CC2(Cc3ccc(C(C)(C)C)cc3)C(=O)N(CCCCN)C(=O)N(CCCCN)C2=O)cc1	E. coli 50579417	(18)
CC(C)(C)c1ccc(CC2(Cc3ccc(C(C)(C)C)cc3)C(=O)N(CCCCNC(=N)N)C(=O)N(CCCCNC(=N)N)C2=O)cc1	E. coli 50579417	(19)
N=C(N)NCCCCN1C(=O)N(CCCCNC(=N)N)C(=O)C(Cc2ccc3ccccc3c2)(Cc2ccc3ccccc3c2)C1=O	E. coli 50579417	(8)

----------
Listed molecules paired with reported MIC
tested on: S. aureus strain 85/2082; assay: MIC, multi-resistant clinical isolate; format: cell-based, Staphylococcus aureus; details: Staphylococcus aureus, 85/2082, read-out: Antimicrobial activity (MIC)
Property: MIC (µg/mL)

Molecule	Value
CC(C)(C)c1ccc(CC2(Cc3ccc(C(C)(C)C)cc3)C(=O)N(CCCCN)C(=O)N(CCCCN)C2=O)cc1 [Compound 7(i)]	8
NCCCCN1C(=O)N(CCCCN)C(=O)C(Cc2cc(Br)cc(Br)c2)(Cc2cc(Br)cc(Br)c2)C1=O [7(ii)]	4
N=C(N)NCCCCN1C(=O)N(CCCCNC(=N)N)C(=O)C(Cc2ccc(F)c3ccccc23)(Cc2ccc(F)c3ccccc23)C1=O [8(v)]	2
NCCCCN1C(=O)N(CCCCN)C(=O)C(Cc2ccc3ccccc3c2)(Cc2ccc3ccccc3c2)C1=O [7(iv)]	8

----------
system: K. pneumoniae K66-45; test: MIC, multi-resistant clinical isolate; format: cell-based, Klebsiella pneumoniae; conditions: RBC EC50 / MIC, K. pneumoniae K66-45

Structure As Smiles	selectivity index (EC50/MIC)
N=C(N)NCCCCN1C(=O)N(CCCCNC(=N)N)C(=O)C(Cc2ccc(F)c3ccccc23)(Cc2ccc(F)c3ccccc23)C1=O	(22)
CC(C)(C)c1cc(CC2(Cc3cc(C(C)(C)C)cc(C(C)(C)C)c3)C(=O)N(CCCCNC(=N)N)C(=O)N(CCCCNC(=N)N)C2=O)cc(C(C)(C)C)c1	(<0.5)
CC(C)(C)c1cc(CC2(Cc3cc(C(C)(C)C)cc(C(C)(C)C)c3)C(=O)N(CCCCN)C(=O)N(CCCCN)C2=O)cc(C(C)(C)C)c1	(<0.5)

----------
Measured MIC accompanies every entry in the list below.
system: A. baumanii K55-13; test: MIC, multi-resistant clinical isolate; format: cell-based, Acinetobacter baumannii; conditions: Acinetobacter baumannii, K5513, read-out: Antimicrobial activity (MIC)
Property: MIC

Structure As Smiles	Value
CC(C)(C)c1cc(CC2(Cc3cc(C(C)(C)C)cc(C(C)(C)C)c3)C(=O)N(CCCCN)C(=O)N(CCCCN)C2=O)cc(C(C)(C)C)c1	4 µg/mL
NCCCCN1C(=O)N(CCCCN)C(=O)C(Cc2ccc3ccccc3c2)(Cc2ccc3ccccc3c2)C1=O	32 µg/mL
CC(C)(C)c1ccc(CC2(Cc3ccc(C(C)(C)C)cc3)C(=O)N(CCCCN)C(=O)N(CCCCN)C2=O)cc1	16 µg/mL
CC(C)(C)c1ccc(CC2(Cc3ccc(C(C)(C)C)cc3)C(=O)N(CCCCNC(=N)N)C(=O)N(CCCCNC(=N)N)C2=O)cc1	8 µg/mL

----------
System: K. pneumoniae 50625602
Assay: MIC, multi-resistant clinical isolate
Assay type: cell-based, Klebsiella pneumoniae
Settings: RBC EC50 / MIC
Procedure: Working solutions of the test derivatives were prepared with up to 100% DMSO and stored at −20° C. If necessary, the solutions were heated to 40-80° C. before testing to facilitate complete dissolution. Double-distilled water was used in all dilutions prepared. […]
Property: selectivity index (EC50/MIC)

Structure As Smiles	Property	Value
CC(C)(C)c1ccc(CC2(Cc3ccc(C(C)(C)C)cc3)C(=O)N(CCCCNC(=N)N)C(=O)N(CCCCNC(=N)N)C2=O)cc1	selectivity index (EC50/MIC)	(19)
CC(C)(C)c1ccc(CC2(Cc3ccc(C(C)(C)C)cc3)C(=O)N(CCCCN)C(=O)N(CCCCN)C2=O)cc1	selectivity index (EC50/MIC)	(9)
N=C(N)NCCCCN1C(=O)N(CCCCNC(=N)N)C(=O)C(Cc2ccc3ccccc3c2)(Cc2ccc3ccccc3c2)C1=O	selectivity index (EC50/MIC)	(8)
N=C(N)NCCCCN1C(=O)N(CCCCNC(=N)N)C(=O)C(Cc2cc(Br)cc(Br)c2)(Cc2cc(Br)cc(Br)c2)C1=O	selectivity index (EC50/MIC)	(14)
N=C(N)NCCCCN1C(=O)N(CCCCNC(=N)N)C(=O)C(Cc2ccc(F)c3ccccc23)(Cc2ccc(F)c3ccccc23)C1=O	selectivity index (EC50/MIC)	(6)

The measurements presented in this section are drawn from patent US11072588B2.
